Where a SMILES comes first, the peptide text is derived from it. [ ]: non-standard residue; d: D form. The star is where a group is joined. Desaminotyrosyl = O=C(CCc1ccc(O)cc1)*; Hydrocinnamoyl = O=C(CCc1ccccc1)*; N(Me)CH2CH2Ph = CN(CCc1ccccc1)*; NHPhenethyl = c1ccc(CCN*)cc1; NMeV = CN[C@H](C(=O)O)C(C)C; NEt2 = CCN(CC)*
These compounds were tested on UniProt P08543; IC50 is the recorded read-out.
Reply with just the number (in nM).

# annotated cases, reported IC50 shown
compound	unit	IC50
CCN(CC)C(=O)C[C@H](NC(=O)[C@@H](NC(=O)[C@H](C(C)C)N(C)C(=O)CCc1ccccc1)[C@@H](C)O)C(=O)N[C@@H](CC(=O)O)C(=O)N[C@@H](CC(C)C)C(=O)O [Entry 26] (Hydrocinnamoyl-[NMeV]TD(NEt2)DL-OH)	nM	300
CC[C@H](C)[C@H](NC(=O)[C@H](C(C)C)N(C)C(=O)CCc1ccc(O)cc1)C(=O)N[C@@H](CC(=O)NCCc1ccccc1)C(=O)N[C@@H](CC(=O)O)C(=O)N[C@@H](CC(C)C)C(=O)O [Entry 11] (Desaminotyrosyl-[NMeV]ID(NHPhenethyl)DL-OH)	nM	510
CC[C@H](C)[C@H](NC(=O)[C@@H](NC(=O)CCc1ccc(O)cc1)C(C)C)C(=O)N[C@@H](CC(=O)N(C)CCc1ccccc1)C(=O)N[C@@H](CC(=O)O)C(=O)N[C@@H](CC(C)C)C(=O)O [Entry 20] (Desaminotyrosyl-VID(N(Me)CH2CH2Ph)DL-OH)	nM	550

Please report the recorded IC50 for CC[C@H](C)[C@H](NC(=O)[C@H](C(C)C)N(C)C(=O)CCc1ccc(O)cc1)C(=O)N[C@@H](CC(=O)N(C)CCc1ccccc1)C(=O)N[C@@H](CC(=O)O)C(=O)N[C@@H](CC(C)C)C(=O)O [Entry 14] (Desaminotyrosyl-[NMeV]ID(N(Me)CH2CH2Ph)DL-OH) . 380

----------
Where a SMILES comes first, the peptide text is derived from it. [ ]: non-standard residue; d: D form. The star is where a group is joined. Desaminotyrosyl = O=C(CCc1ccc(O)cc1)*; Hydrocinnamoyl = O=C(CCc1ccccc1)*; NMeV = CN[C@H](C(=O)O)C(C)C; Morpholide = C1CN(*)CCO1; NHPh = c1ccc(N*)cc1; NEt2 = CCN(CC)*
Record: IC50 reported on HSV-1 ribonucleotide reductase (Human herpesvirus 1).
Numbers only here, please. The scale is nM.

Below, each entry is followed by its recorded IC50 result.
compound	meas_value
CC[C@H](C)[C@H](NC(=O)[C@H](C(C)C)N(C)C(=O)CCc1ccc(O)cc1)C(=O)N[C@@H](CC(=O)Nc1ccccc1)C(=O)N[C@@H](CC(=O)O)C(=O)N[C@@H](CC(C)C)C(=O)O [Entry 10] (Desaminotyrosyl-[NMeV]ID(NHPh)DL-OH)	1600
CC[C@H](C)[C@H](NC(=O)[C@H](C(C)C)N(C)C(=O)CCc1ccc(O)cc1)C(=O)N[C@@H](CC(=O)N1CCOCC1)C(=O)N[C@@H](CC(=O)O)C(=O)N[C@@H](CC(C)C)C(=O)O [Entry 16] (Desaminotyrosyl-[NMeV]ID(Morpholide)DL-OH)	370
CC[C@H](C)[C@H](NC(=O)[C@@H](NC(=O)CCc1ccc(O)cc1)C(C)C)C(=O)N[C@@H](CC(=O)N(CC)CC)C(=O)N[C@@H](CC(=O)O)C(=O)N[C@@H](CC(C)C)C(=O)O [Entry 19] (Desaminotyrosyl-VID(NEt2)DL-OH)	560
CC[C@H](C)[C@H](NC(=O)[C@H](C(C)C)N(C)C(=O)CCc1ccc(O)cc1)C(=O)N[C@@H](CC(=O)N(C)C)C(=O)N[C@@H](CC(=O)O)C(=O)N[C@@H](CC(C)C)C(=O)O [Entry 12] (Desaminotyrosyl-[NMeV]ID(NMe2)DL-OH)	90

Now consider a different compound.
So what's the measured IC50 for this one? CC[C@H](C)[C@H](NC(=O)[C@H](C(C)C)N(C)C(=O)CCc1ccccc1)C(=O)N[C@@H](CC(=O)N(C)C)C(=O)N[C@@H](CC(=O)O)C(=O)N[C@@H](CC(C)C)C(=O)O [Entry 3] (Hydrocinnamoyl-[NMeV]ID(NMe2)DL-OH) 190

----------
Hi! I'm sharing some IC50 results obtained with HSV-1 ribonucleotide reductase (Human herpesvirus 1).
Where a SMILES comes first, the peptide text is derived from it. [ ]: non-standard residue; d: D form. The star is where a group is joined. Desaminotyrosyl = O=C(CCc1ccc(O)cc1)*; Hydrocinnamoyl = O=C(CCc1ccccc1)*; O(2S-octyl) = CCCCCC[C@H](C)O*; NMeV = CN[C@H](C(=O)O)C(C)C; Pyrrolidide = C1CCN(*)C1; X3 = c1ccc(CCCO*)cc1; N(Me)OMe = CON(C)*

compound	IC50
CC[C@H](C)[C@H](NC(=O)[C@H](C(C)C)N(C)C(=O)CCc1ccccc1)C(=O)N[C@@H](CC(=O)N1CCCC1)C(=O)N[C@@H](CC(=O)O)C(=O)N[C@@H](CC(C)C)C(=O)O [Entry 6] (Hydrocinnamoyl-[NMeV]ID(Pyrrolidide)DL-OH)	110 nM
CCCCCC[C@H](C)OC(=O)C[C@H](NC(=O)[C@@H](NC(=O)[C@H](C(C)C)N(C)C(=O)CCc1ccccc1)[C@@H](C)CC)C(=O)N[C@@H](CC(=O)O)C(=O)N[C@@H](CC(C)C)C(=O)O [Entry 1] (Hydrocinnamoyl-[NMeV]ID(O(2S-octyl))DL-OH)	700 nM
CC[C@H](C)[C@H](NC(=O)[C@H](C(C)C)N(C)C(=O)CCc1ccccc1)C(=O)N[C@@H](CC(=O)N(C)OC)C(=O)N[C@@H](CC(=O)O)C(=O)N[C@@H](CC(C)C)C(=O)O [Entry 8] (Hydrocinnamoyl-[NMeV]ID(N(Me)OMe)DL-OH)	190 nM

# next compound below
Look up IC50 for this compound: CC[C@H](C)[C@H](NC(=O)[C@H](C(C)C)N(C)C(=O)CCc1ccc(O)cc1)C(=O)N[C@@H](CC(=O)OCCCc1ccccc1)C(=O)N[C@@H](CC(=O)O)C(=O)N[C@@H](CC(C)C)C(=O)O [Entry 9] (Desaminotyrosyl-[NMeV]ID(X3)DL-OH) 650 nM

----------
HSV-1 ribonucleotide reductase (Human herpesvirus 1, UniProt P08543): reported pIC50 for various compounds.
Sequence (P08543 whole entry): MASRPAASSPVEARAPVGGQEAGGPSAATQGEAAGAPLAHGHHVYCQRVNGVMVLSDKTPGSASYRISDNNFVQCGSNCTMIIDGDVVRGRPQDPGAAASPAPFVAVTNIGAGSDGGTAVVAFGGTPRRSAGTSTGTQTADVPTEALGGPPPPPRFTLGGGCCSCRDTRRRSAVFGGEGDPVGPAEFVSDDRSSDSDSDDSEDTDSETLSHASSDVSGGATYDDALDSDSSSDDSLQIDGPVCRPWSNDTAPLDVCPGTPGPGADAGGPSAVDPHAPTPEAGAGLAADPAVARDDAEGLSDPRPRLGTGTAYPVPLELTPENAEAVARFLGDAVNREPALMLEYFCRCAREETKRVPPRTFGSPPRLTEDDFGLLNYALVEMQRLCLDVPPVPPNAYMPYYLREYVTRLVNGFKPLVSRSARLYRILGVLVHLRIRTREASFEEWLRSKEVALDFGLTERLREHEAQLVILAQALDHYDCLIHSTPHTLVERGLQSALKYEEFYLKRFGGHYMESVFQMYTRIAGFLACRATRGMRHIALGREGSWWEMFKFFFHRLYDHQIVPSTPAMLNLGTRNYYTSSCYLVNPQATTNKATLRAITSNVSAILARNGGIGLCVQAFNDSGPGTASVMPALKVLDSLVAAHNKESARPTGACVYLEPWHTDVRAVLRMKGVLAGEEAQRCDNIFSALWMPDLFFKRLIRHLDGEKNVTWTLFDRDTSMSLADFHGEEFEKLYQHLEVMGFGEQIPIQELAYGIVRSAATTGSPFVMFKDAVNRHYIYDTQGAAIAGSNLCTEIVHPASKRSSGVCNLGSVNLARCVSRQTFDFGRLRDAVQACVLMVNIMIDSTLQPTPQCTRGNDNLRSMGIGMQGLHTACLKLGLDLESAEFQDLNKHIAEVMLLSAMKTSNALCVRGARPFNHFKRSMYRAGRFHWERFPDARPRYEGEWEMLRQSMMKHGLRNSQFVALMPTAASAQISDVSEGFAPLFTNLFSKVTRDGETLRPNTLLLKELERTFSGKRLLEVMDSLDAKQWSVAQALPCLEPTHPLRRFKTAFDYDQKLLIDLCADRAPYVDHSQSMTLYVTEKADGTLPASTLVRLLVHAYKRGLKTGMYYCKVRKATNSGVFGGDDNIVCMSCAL
Where a SMILES comes first, the peptide text is derived from it. [ ]: non-standard residue; d: D form. The star is where a group is joined. Desaminotyrosyl = O=C(CCc1ccc(O)cc1)*; Hydrocinnamoyl = O=C(CCc1ccccc1)*; Pentanoyl(4-Me) = CC(C)CCC(=O)*; NHPhenethyl = c1ccc(CCN*)cc1; NMeV = CN[C@H](C(=O)O)C(C)C; Morpholide = C1CN(*)CCO1; X1 = CCCCCC[C@@H](C)O*; X8 = CN(CCc1ccccn1)*; NEt2 = CCN(CC)*
FYI, pIC50 means -log10 of a concentration in mol per litre.

The following compounds have reported results that may help.
compound	pIC50
CC[C@H](C)[C@H](NC(=O)[C@H](C(C)C)N(C)C(=O)CCc1ccc(O)cc1)C(=O)N[C@@H](CC(=O)N(CC)CC)C(=O)N[C@@H](CC(=O)O)C(=O)N[C@@H](CC(C)C)C(=O)O [Entry 13, DAT-N-Me-Val-Ile-Asp(NEt₂)-Asp-Leu-OH] (Desaminotyrosyl-[NMeV]ID(NEt2)DL-OH)	6.57
CC[C@H](C)[C@H](NC(=O)[C@@H](NC(C)=O)C(C)C)C(=O)N[C@@H](CC(=O)NCCc1ccccc1)C(=O)N[C@@H](CC(=O)O)C(=O)N[C@@H](CC(C)C)C(=O)O [Entry 23, Ac-Val-Ile-Asp(NHCH₂CH₂Ph)-Asp-Leu-OH] (Ac-VID(NHPhenethyl)DL-OH)	4.74
CC[C@H](C)[C@H](NC(=O)[C@@H](NC(=O)CCc1ccc(O)cc1)C(C)C)C(=O)N[C@@H](CC(=O)NCCc1ccccc1)C(=O)N[C@@H](CC(=O)O)C(=O)N[C@@H](CC(C)C)C(=O)O [Entry 17] (Desaminotyrosyl-VID(NHPhenethyl)DL-OH)	5.77
CCCCCC[C@@H](C)OC(=O)C[C@H](NC(=O)[C@@H](NC(=O)[C@H](C(C)C)N(C)C(=O)CCc1ccccc1)[C@@H](C)CC)C(=O)N[C@@H](CC(=O)O)C(=O)N[C@@H](CC(C)C)C(=O)O [Entry 2] (Hydrocinnamoyl-[NMeV]ID(X1)DL-OH)	6.15
CC[C@H](C)[C@H](NC(=O)[C@H](C(C)C)N(C)C(=O)CCc1ccc(O)cc1)C(=O)N[C@@H](CC(=O)N(C)CCc1ccccn1)C(=O)N[C@@H](CC(=O)O)C(=O)N[C@@H](CC(C)C)C(=O)O [Entry 15] (Desaminotyrosyl-[NMeV]ID(X8)DL-OH)	6.54
CC[C@H](C)[C@H](NC(=O)[C@H](C(C)C)N(C)C(=O)CCC(C)C)C(=O)N[C@@H](CC(=O)N(CC)CC)C(=O)N[C@@H](CC(=O)O)C(=O)N[C@@H](CC(C)C)C(=O)O [Entry 25] ({Pentanoyl(4-Me)}-[NMeV]ID(NEt2)DL-OH)	6.30
CCNC(=O)C[C@H](NC(=O)[C@@H](NC(=O)[C@@H](NC(=O)CCc1ccc(O)cc1)C(C)C)[C@@H](C)CC)C(=O)N[C@@H](CC(=O)O)C(=O)N[C@@H](CC(C)C)C(=O)O [Entry 18] (Desaminotyrosyl-VID(NHEt)DL-OH)	5.76

// below: pIC50 requested for another compound
Using the record for CC[C@H](C)[C@H](NC(=O)[C@H](C(C)C)N(C)C(=O)CCc1ccccc1)C(=O)N[C@@H](CC(=O)N1CCOCC1)C(=O)N[C@@H](CC(=O)O)C(=O)N[C@@H](CC(C)C)C(=O)O [Entry 7] (Hydrocinnamoyl-[NMeV]ID(Morpholide)DL-OH) , report its pIC50. 6.74
